Just for reference, patent EP0072352B1 is where these values come from.

- system tested: Angiotensin-umwandelnde Enzym (ACE) (Oryctolagus cuniculus, UniProt P12822)
- Construct: Es wurde ein Kaninchen-Lungengewebe-Präparat; from tissue; host or cells: lung of adult male rabbits
- Sequence (P12822 34-1310): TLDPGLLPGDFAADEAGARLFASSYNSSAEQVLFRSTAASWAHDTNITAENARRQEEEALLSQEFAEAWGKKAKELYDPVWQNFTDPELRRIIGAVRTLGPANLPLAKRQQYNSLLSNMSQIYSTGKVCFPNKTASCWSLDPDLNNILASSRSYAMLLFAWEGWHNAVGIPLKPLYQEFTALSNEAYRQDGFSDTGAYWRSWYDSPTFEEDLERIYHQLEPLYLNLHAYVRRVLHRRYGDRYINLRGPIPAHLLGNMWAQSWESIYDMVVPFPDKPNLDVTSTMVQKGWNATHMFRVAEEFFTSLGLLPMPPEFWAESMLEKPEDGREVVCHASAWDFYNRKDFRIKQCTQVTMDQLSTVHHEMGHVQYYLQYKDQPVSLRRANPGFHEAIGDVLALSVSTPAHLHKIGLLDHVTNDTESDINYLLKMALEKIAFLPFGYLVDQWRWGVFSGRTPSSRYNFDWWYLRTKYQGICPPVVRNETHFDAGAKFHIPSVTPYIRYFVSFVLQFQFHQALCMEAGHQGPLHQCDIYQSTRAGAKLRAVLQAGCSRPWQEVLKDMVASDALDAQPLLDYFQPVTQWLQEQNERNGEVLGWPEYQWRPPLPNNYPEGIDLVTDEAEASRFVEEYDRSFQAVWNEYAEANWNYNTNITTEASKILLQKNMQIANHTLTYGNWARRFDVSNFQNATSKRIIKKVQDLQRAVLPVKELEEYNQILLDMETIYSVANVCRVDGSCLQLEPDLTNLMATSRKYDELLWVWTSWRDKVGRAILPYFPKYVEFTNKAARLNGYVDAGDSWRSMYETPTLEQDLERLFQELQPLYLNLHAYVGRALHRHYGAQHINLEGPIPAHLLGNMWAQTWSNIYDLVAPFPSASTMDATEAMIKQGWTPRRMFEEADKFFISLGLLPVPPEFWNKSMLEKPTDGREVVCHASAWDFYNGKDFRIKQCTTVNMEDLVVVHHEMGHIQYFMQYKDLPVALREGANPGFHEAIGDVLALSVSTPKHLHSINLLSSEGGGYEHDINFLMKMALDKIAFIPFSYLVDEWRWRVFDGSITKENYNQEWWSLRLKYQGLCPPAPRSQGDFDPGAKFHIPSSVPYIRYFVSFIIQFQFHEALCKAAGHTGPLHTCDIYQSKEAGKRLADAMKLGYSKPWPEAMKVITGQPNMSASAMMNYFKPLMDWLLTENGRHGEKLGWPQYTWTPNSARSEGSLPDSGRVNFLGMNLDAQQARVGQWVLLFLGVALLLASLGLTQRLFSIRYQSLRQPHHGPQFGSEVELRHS
- assay summary: In vitro ACE inhibition (ACEI), rabbit lung tissue preparation, hippuryl-histidyl-leucine substrate, method of Cheung and Cushman
- Format: biochemical, Kaninchen
- details: rabbit lung tissue preparation; 30 min incubation at 37°; read-out: In vitro ACEI IC50
Counter-ions that a name gives are not always drawn.
endpoint name: IC50 (nM)

A selection of reference data follows.
>  <compound>
CCOC(=O)[C@@H](CCc1ccccc1)N[C@H]1CCc2ccccc2N(CC(=O)O)C1=O

>  <IC50 [nM]>
200

$$$$
>  <compound>
CCOC(=O)[C@H](CCc1ccccc1)N[C@H]1CCc2ccccc2N(CC(=O)O)C1=O (racemic) [Beispiel 1]

>  <IC50 [nM]>
600

$$$$
>  <compound>
O=C(O)CN1C(=O)[C@@H](N[C@@H](CCc2ccccc2)C(=O)O)CCc2ccccc21

>  <IC50 [nM]>
2

$$$$

(I) CCOC(=O)[C@H](CCc1ccccc1)N[C@H]1CCc2ccccc2N(CC(=O)O)C1=O [12 HCl Salz]
(II) O=C(O)CN1C(=O)C(NC(CCc2ccccc2)C(=O)O)CCc2ccccc21 (single isomer, unassigned)
Asked: Compare the recorded IC50 of I and II ; state which is larger. Provide the label of your selected option as the answer.
Given back: I
(I: 400 nM, II: 5 nM)
